system: Interleukin-1 receptor-associated kinase 3 (Homo sapiens)
Sequence (Q9Y616 whole entry): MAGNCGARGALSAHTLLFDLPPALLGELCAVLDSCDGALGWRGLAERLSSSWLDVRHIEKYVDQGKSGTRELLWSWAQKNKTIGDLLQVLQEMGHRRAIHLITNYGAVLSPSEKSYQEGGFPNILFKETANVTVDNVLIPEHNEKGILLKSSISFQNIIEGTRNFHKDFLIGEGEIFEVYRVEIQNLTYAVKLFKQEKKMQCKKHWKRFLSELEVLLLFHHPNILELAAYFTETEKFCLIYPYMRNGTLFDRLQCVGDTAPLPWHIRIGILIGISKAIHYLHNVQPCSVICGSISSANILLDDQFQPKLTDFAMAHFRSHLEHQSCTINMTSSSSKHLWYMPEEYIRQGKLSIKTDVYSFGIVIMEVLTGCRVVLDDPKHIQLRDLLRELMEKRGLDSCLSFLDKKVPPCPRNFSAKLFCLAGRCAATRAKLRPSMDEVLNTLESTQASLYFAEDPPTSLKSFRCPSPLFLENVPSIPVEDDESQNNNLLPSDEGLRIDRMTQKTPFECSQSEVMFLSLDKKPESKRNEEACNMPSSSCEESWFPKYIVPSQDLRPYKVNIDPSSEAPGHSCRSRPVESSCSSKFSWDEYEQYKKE
pKd: −log10 of the molar value.
Please respond with reported pKd for every item in the list.

Inquiry: Form entry - test system: Interleukin-1 receptor-associated kinase 3 (Homo sapiens); read-out: pKd; compound: CCOc1cc2ncc(C#N)c(Nc3ccc(F)c(Cl)c3)c2cc1NC(=O)/C=C/CN(C)C [PELITINIB]
Reply text: < 5.00

Inquiry: What is its pKd for Interleukin-1 receptor-associated kinase 3 (Homo sapiens)? Entry: COCC(=O)NC/C=C/c1ccc2ncnc(Nc3ccc(Oc4ccc(C)nc4)c(C)c3)c2c1 [CP-724714]
Reply text: < 5.00

Inquiry: Find pKd (Interleukin-1 receptor-associated kinase 3 (Homo sapiens)) for the entry Nc1nc(Nc2ccc(S(N)(=O)=O)cc2)nn1C(=O)c1c(F)cccc1F [JNJ-7706621]
Reply text: 5.47

Inquiry: Request body: readout pKd, system Interleukin-1 receptor-associated kinase 3 (Homo sapiens), query NC(=O)c1ccc(-c2nc(-c3ccc4c(c3)OCO4)c(-c3ccccn3)[nH]2)cc1 [SB-431542] . Return the value.
Reply text: < 5.00

Inquiry: What pKd appears in the records for this compound with Interleukin-1 receptor-associated kinase 3 (Homo sapiens)? Oc1ccc(-c2nc(-c3ccncc3)c(-c3ccc(F)cc3)[nH]2)cc1 [SB-202190]
Reply text: < 5.00

###

I'd appreciate it if you could supply Kd values for the items below.

Inquiry: Record lookup: for Epidermal growth factor receptor (Homo sapiens, UniProt P00533, S752-I759DEL), what Kd belongs to NC(=O)c1ccc(-c2nc(-c3ccc4c(c3)OCO4)c(-c3ccccn3)[nH]2)cc1 ?
Reply text: > 10 µM

Inquiry: Return Kd measured with Epidermal growth factor receptor (Homo sapiens, UniProt P00533, S752-I759DEL) given this compound: Nc1nc(Nc2ccc(S(N)(=O)=O)cc2)nn1C(=O)c1c(F)cccc1F
Reply text: > 10 µM

###

Dear all, this message contains pKd results, target or system Casein kinase I isoform delta (Homo sapiens, UniProt P48730).
pKd: −log10 of the molar value.

Inquiry: Can you look up the measured pKd of CCOc1cc2ncc(C#N)c(Nc3ccc(F)c(Cl)c3)c2cc1NC(=O)/C=C/CN(C)C [PELITINIB] for me?
Reply text: 5.96

Inquiry: Please report the recorded pKd for Nc1nc(Nc2ccc(S(N)(=O)=O)cc2)nn1C(=O)c1c(F)cccc1F [JNJ-7706621] .
Reply text: < 5.00

Inquiry: Please give the measured pKd for this compound: COCC(=O)NC/C=C/c1ccc2ncnc(Nc3ccc(Oc4ccc(C)nc4)c(C)c3)c2c1 [CP-724714]
Reply text: < 5.00

###

# Kd measurements, system: Atypical kinase COQ8B, mitochondrial (Homo sapiens)
All answers are understood in µM, so give the number only.

Inquiry: Recorded Kd for Oc1ccc(-c2nc(-c3ccncc3)c(-c3ccc(F)cc3)[nH]2)cc1 with Atypical kinase COQ8B, mitochondrial (Homo sapiens), please?
Reply text: 4.9

Inquiry: Find the measured Kd: item CCOc1cc2ncc(C#N)c(Nc3ccc(F)c(Cl)c3)c2cc1NC(=O)/C=C/CN(C)C , target or system Atypical kinase COQ8B, mitochondrial (Homo sapiens).
Reply text: 6.1

###

Hi there, I'd appreciate the recorded Kd for every entry that follows.

Inquiry: Form: Entry = NC(=O)c1ccc(-c2nc(-c3ccc4c(c3)OCO4)c(-c3ccccn3)[nH]2)cc1 | System = Serine/threonine-protein kinase PLK4 (Homo sapiens) | Kd = ____
Reply text: > 10 µM

Inquiry: Observed Kd on Serine/threonine-protein kinase PLK4 (Homo sapiens) for COCC(=O)NC/C=C/c1ccc2ncnc(Nc3ccc(Oc4ccc(C)nc4)c(C)c3)c2c1 , please.
Reply text: > 10 µM

Inquiry: // lookup Kd | system=Serine/threonine-protein kinase PLK4 (Homo sapiens) | key= Oc1ccc(-c2nc(-c3ccncc3)c(-c3ccc(F)cc3)[nH]2)cc1
Reply text: > 10 µM

Inquiry: Please provide the recorded Kd for Nc1nc(Nc2ccc(S(N)(=O)=O)cc2)nn1C(=O)c1c(F)cccc1F , tested on Serine/threonine-protein kinase PLK4 (Homo sapiens).
Reply text: 0.12 µM

Inquiry: API: value(readout=Kd, system=Serine/threonine-protein kinase PLK4 (Homo sapiens)) for record CCOc1cc2ncc(C#N)c(Nc3ccc(F)c(Cl)c3)c2cc1NC(=O)/C=C/CN(C)C
Reply text: > 10 µM

###

What Kd was measured for each of the following?

Inquiry: Tell me reported Kd for NC(=O)c1ccc(-c2nc(-c3ccc4c(c3)OCO4)c(-c3ccccn3)[nH]2)cc1 , tested with Dual specificity mitogen-activated protein kinase kinase 2 (Homo sapiens).
Reply text: > 10 µM

Inquiry: Record Oc1ccc(-c2nc(-c3ccncc3)c(-c3ccc(F)cc3)[nH]2)cc1 : what is its Kd with Dual specificity mitogen-activated protein kinase kinase 2 (Homo sapiens)?
Reply text: 9.6 µM

Inquiry: Fill in the recorded Kd for this molecule, with Dual specificity mitogen-activated protein kinase kinase 2 (Homo sapiens) as test system: COCC(=O)NC/C=C/c1ccc2ncnc(Nc3ccc(Oc4ccc(C)nc4)c(C)c3)c2c1
Reply text: > 10 µM

###

pKd: −log10 of the molar value.
Quick record: pKd, Serine/threonine-protein kinase SIK1 (Homo sapiens).

Inquiry: Notebook entry, Serine/threonine-protein kinase SIK1 (Homo sapiens) assay: pKd of CCOc1cc2ncc(C#N)c(Nc3ccc(F)c(Cl)c3)c2cc1NC(=O)/C=C/CN(C)C [PELITINIB] = ?
Reply text: < 5.00

Inquiry: Missing value: pKd, Serine/threonine-protein kinase SIK1 (Homo sapiens), entry NC(=O)c1ccc(-c2nc(-c3ccc4c(c3)OCO4)c(-c3ccccn3)[nH]2)cc1 [SB-431542] . Fill in?
Reply text: < 5.00

Inquiry: Observed pKd on Serine/threonine-protein kinase SIK1 (Homo sapiens) for COCC(=O)NC/C=C/c1ccc2ncnc(Nc3ccc(Oc4ccc(C)nc4)c(C)c3)c2c1 [CP-724714] , please.
Reply text: < 5.00

Inquiry: Any idea what pKd came out for Oc1ccc(-c2nc(-c3ccncc3)c(-c3ccc(F)cc3)[nH]2)cc1 [SB-202190] on Serine/threonine-protein kinase SIK1 (Homo sapiens)?
Reply text: < 5.00

###

system: Ephrin type-A receptor 6 (Homo sapiens)
Sequence (Q9UF33 whole entry): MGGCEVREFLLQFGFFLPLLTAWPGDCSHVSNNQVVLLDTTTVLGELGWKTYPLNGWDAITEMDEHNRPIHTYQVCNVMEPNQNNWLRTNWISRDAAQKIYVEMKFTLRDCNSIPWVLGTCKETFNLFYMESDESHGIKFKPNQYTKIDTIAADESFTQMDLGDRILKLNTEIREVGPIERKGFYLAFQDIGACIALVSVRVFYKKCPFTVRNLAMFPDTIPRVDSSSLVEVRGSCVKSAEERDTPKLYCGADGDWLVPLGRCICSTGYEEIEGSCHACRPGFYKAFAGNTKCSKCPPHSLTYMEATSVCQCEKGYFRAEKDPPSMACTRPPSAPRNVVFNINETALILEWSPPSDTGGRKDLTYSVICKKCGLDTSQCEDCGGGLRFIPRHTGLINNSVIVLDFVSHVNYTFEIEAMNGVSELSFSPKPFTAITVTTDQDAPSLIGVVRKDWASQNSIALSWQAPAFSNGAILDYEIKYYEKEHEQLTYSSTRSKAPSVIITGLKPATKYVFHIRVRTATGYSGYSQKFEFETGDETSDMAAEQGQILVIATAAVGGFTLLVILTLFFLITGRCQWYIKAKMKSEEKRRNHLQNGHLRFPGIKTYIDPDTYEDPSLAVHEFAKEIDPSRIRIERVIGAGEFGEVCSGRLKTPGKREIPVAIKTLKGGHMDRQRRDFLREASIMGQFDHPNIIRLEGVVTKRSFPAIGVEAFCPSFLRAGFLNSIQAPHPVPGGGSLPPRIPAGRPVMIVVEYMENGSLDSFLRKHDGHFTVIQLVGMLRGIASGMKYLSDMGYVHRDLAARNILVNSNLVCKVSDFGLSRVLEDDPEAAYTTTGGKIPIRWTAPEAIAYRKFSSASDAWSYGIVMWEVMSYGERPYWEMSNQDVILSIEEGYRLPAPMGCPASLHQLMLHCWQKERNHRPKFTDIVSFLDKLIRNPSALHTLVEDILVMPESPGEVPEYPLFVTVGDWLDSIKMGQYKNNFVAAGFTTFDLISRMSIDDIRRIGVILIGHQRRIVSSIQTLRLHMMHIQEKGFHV
pKd: −log10 of the molar value.
Give measured pKd for each item. Keep answers brief.

Inquiry: # query: pKd of entry Nc1nc(Nc2ccc(S(N)(=O)=O)cc2)nn1C(=O)c1c(F)cccc1F
Reply text: < 5.00

Inquiry: Value lookup for pKd; key = COCC(=O)NC/C=C/c1ccc2ncnc(Nc3ccc(Oc4ccc(C)nc4)c(C)c3)c2c1
Reply text: < 5.00

Inquiry: Given NC(=O)c1ccc(-c2nc(-c3ccc4c(c3)OCO4)c(-c3ccccn3)[nH]2)cc1 , state its recorded pKd.
Reply text: < 5.00

Inquiry: Data request, read-out pKd, for Oc1ccc(-c2nc(-c3ccncc3)c(-c3ccc(F)cc3)[nH]2)cc1
Reply text: 5.66
